Below: molecules with pIC50 recorded for Amine oxidase [flavin-containing] A (Homo sapiens) in separate published works.
pIC50: −log10 of the molar value.

molecule	pIC50
CS(=O)(=O)Nc1ccc(-c2coc3cc(C#Cc4ccccc4)ccc3c2=O)cc1	< 4.89
Cc1cncc(-c2ccc3cc(OC[C@H](O)CF)ccc3n2)c1	< 5.00
O=c1c2ccc(OCc3noc(-c4cccc(C(F)(F)F)c4)n3)cc2ncn1-c1ccc(O)cc1	< 5.00
N#CCOc1ccc2c(=O)c(-c3ccc(O)cc3)coc2c1	5.21
Cc1ncccc1-c1ccc2cc(OC[C@H](O)CF)ccc2n1	< 5.00
CC1=NN(c2ccc(C(=O)Nc3ccc([C@@H]4C[C@H]4NCC4CC4)cc3)cc2)C(=O)C1 (relative stereo)	< 5.00
CS(=O)(=O)Nc1ccc(-c2coc3cc(C#CC4CN(C(=O)CO)C4)ccc3c2=O)cc1	< 3.89
O=C(NCc1ccc(-c2cc[nH]c(=O)c2)cc1)c1cccc(F)c1Cl	< 3.89
O=C(Nc1ccc([C@@H]2C[C@H]2NCc2ccccc2)cc1)c1cccc(NCc2ccccc2)c1 (relative stereo)	5.28
